testDetails: compound fluorescence in toxin protease inhibitor counterscreen, primary screen, artefact control for toxin protease inhibitor project, biochemical, multiplex microsphere, HTS (AID 624483)
protocolConditions: compound autofluorescence counterscreen, microsphere flow cytometry; stronger effect = higher value
Among all 360,000 compounds or so, about 11,000 (3.1%) were called active. About 2% were inconclusive and are not listed. The sample holds actives, similar compounds and a random draw of the others, so the mix is not that of the screen.
Class condition met: fluorescence intensity at least 5000. Class condition not met: fluorescence intensity below 5000.

Prompt line: Decide: is the reported value of fluorescence intensity for CCCC1NC(=S)NC(C)=C1C(C)=O (stereo not drawn) equal to or greater than 5000?
Response line: condition not met

Prompt line: // next record CCOC(=O)C1CCCCN1Cc1ccc(OC)c(OC)c1OC (stereo not drawn)
Response line: condition met

Prompt line: Do the same for "C/C(=N\N)c1c(-c2ccccc2)c2cc(Br)ccc2[nH]c1=O" please
Response line: condition not met

More entries:
Prompt line: Check this compound for fluorescence intensity at or above 5000: "CCOC(=O)C1CCN(C(=O)/C=C/c2cc(OC)c(OC)c(OC)c2)CC1"
Response line: condition not met

Prompt line: Then what about the compound "Brc1ccc2nc(-c3ccccc3)c(Cc3ccccc3)n2c1" ?
Response line: condition met

Prompt line: Try this compound too: O=C(C1CCCO1)N(c1ccc(F)cc1)C1C=CS(=O)(=O)C1 (stereo not drawn)
Response line: condition not met

Prompt line: Next entry: NC(Cc1ccccc1)c1csc(Nc2cc(Oc3ccccc3)ncn2)n1 (stereo not drawn)
Response line: condition not met

Prompt line: Proceed to COc1ccc(C(C)(O)c2nc(-c3ccc(C)c(C)c3)cs2)cc1 (stereo not drawn)
Response line: condition not met

Prompt line: Moving on to the next compound: "O=C(CN1CCOCC1)Nc1ccccc1"
Response line: condition not met

Prompt line: Can you check "COc1ccc(C)cc1NC(=O)CSc1ccc(Cl)cc1" next?
Response line: condition not met

Prompt line: Query CC1Cc2[nH][nH]c(=O)c2C(C2CC2)O1 (stereo not drawn) next
Response line: condition met

Prompt line: Okay, and Cc1ccc(S(=O)(=O)N2CCN(C(=O)CCC(=O)NC3CCCc4ccccc43)CC2)cc1 (stereo not drawn) ?
Response line: condition met

Prompt line: Another compound to check: O=C(NCc1ccccc1Cl)C1CCCO1 (stereo not drawn)
Response line: condition not met

Prompt line: And for "CCc1cc2cc(OC)ccc2nc1SCC(=O)Nc1cc(OC)c(OC)cc1C(=O)O" ?
Response line: condition not met

Prompt line: Let us now turn to "Cc1cn([C@H]2C[C@H](O)[C@@H](/C=C/C(=O)NCCCc3ccccc3)O2)c(=O)[nH]c1=O"
Response line: condition not met

====

testDetails: compound fluorescence in toxin protease inhibitor counterscreen, primary screen, artefact control for toxin protease inhibitor project, biochemical, multiplex microsphere, HTS (AID 624483)
protocolConditions: compound autofluorescence counterscreen, microsphere flow cytometry; stronger effect = higher value
Out of some 360,000 compounds screened, about 11,000 (3.1%) were called active. About 2% were inconclusive and are not listed. What follows is part of a selection rich in actives, with near analogues and random picks from the rest.
Classify by measured fluorescence intensity: 1 (yes) if it is equal to or exceeds 4000, 0 (no) if it is smaller.

Prompt line: // inclusive: fluorescence intensity at least 4000? input: "CN1OC[C@@H]2CN(C(=O)C(C)(C)C)[C@H](c3ccc(-n4ccnc4)cc3)C[C@@H]21"
Response line: 1 (yes)

Prompt line: How about this compound: "CCN(CC)C(=O)C(=O)c1cn(CC(=O)NCc2ccc3c(c2)OCO3)c2ccccc12"
Response line: 1 (yes)

# ---- query compound ----
Prompt line: Could you please find out whether "CCNC(=S)N1CCN(C(=O)c2ccco2)CC1" has fluorescence intensity that meets 4000 or exceeds it?
Response line: 1 (yes)
